# assayedSystem: T1, IRF4 DBD wild-type (Homo sapiens, UniProt Q15306 20-132)
# T1 sequence: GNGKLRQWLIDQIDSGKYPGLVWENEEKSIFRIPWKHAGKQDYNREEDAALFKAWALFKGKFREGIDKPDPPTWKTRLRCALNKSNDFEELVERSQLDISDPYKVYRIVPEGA
# experimentalDetails: FP; FP: PBS + 0.05% Tween20, 5 nM DNA, 1 h, room temperature; SPR: Biacore S200, SA chip, protein 0.1-4500 nM, running buffer not given in material; errors are SD
# settings: protein: recombinant; tags: N-terminal His8-linker-His8-TEV, cleaved; label: 3' fluorescein (FAM); hairpin, TTTT loop
measurementKind: pKd
Answers are plain numbers, as −log10 of the molar value.

Please give the measured pKd for this binder: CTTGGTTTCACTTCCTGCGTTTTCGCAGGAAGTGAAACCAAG (structured_DNA) [IRE hairpin (FAM)]
6.25
